Ref: the supplement of paper PMC7411054

Test system: HepG2-TUBA1B-RELA
experimental protocol: lowest phenotypically active concentration; higher = less potent
assay setup: treatment time: 24 h
endpoint: lowest phenotypically active concentration

The following compounds have reported results that may help.
| compound | target desc | reported value |
| --- | --- | --- |
| COc1cc([C@@H]2c3cc4c(cc3[C@@H](O[C@@H]3O[C@@H]5CO[C@@H](c6cccs6)O[C@H]5[C@H](O)[C@H]3O)[C@H]3COC(=O)[C@H]23)OCO4)cc(OC)c1O [teniposide] | HepG2-TUBA1B-RELA | ≤ 0.3 µM |
| CC(=O)O[C@H]1C(=O)[C@@]2(C)[C@H]([C@H](OC(=O)c3ccccc3)[C@]3(O)C[C@H](OC(=O)[C@H](O)[C@@H](NC(=O)c4ccccc4)c4ccccc4)C(C)=C1C3(C)C)[C@]1(OC(C)=O)CO[C@@H]1C[C@@H]2O | HepG2-TUBA1B-RELA | ≤ 0.3 µM |
| O=C(NCCCNc1nc(Nc2cccc(NC(=O)N3CCCC3)c2)ncc1I)c1cccs1 | HepG2-TUBA1B-RELA | ≤ 0.3 µM |

# batch: return lowest phenotypically active concentration for each of the 5 compounds below
1. O=C1c2c(O)ccc(O)c2C(=O)c2c(NCCNCCO)ccc(NCCNCCO)c21
2. CCN(CCO)CCCOc1ccc2c(Nc3cc(CC(=O)Nc4cccc(F)c4)n[nH]3)ncnc2c1
3. CN1CCN(c2ccc(OC(F)(F)F)c(Nc3ncc4c(n3)-c3c(c(C(N)=O)nn3CCO)CC4)c2)CC1
4. C/C=C1\NC(=O)[C@H]2CSSCCC=C[C@H](CC(=O)N[C@H](C(C)C)C(=O)N2)OC(=O)[C@H](C(C)C)NC1=O
5. C[C@H]1Oc2cc(cnc2N)-c2c(nn(C)c2C#N)CN(C)C(=O)c2ccc(F)cc21

Response line:
1. ≤ 0.3 µM
2. ≤ 0.3 µM
3. ≤ 0.3 µM
4. ≤ 0.3 µM
5. ≤ 0.3 µM

Please go through the list and note lowest phenotypically active concentration for each compound.
1. N#CC[C@@H](C1CCCC1)n1cc(-c2ncnc3[nH]ccc23)cn1 [ruxolitinib-(S)]
2. O=C(c1cccc(Cl)c1F)N1CCN(Cc2cccc(Nc3nccs3)n2)CC1
3. CC[C@H](CO)Nc1nc(NCc2ccc(-c3ccccn3)cc2)c2ncn(C(C)C)c2n1
4. O=C1/C(=C\c2ccncc2)CCC/C1=C\c1ccncc1
5. C#Cc1cccc(Nc2ncnc3cc(OCCOC)c(OCCOC)cc23)c1
6. COc1ccccc1S(=O)(=O)Nc1ccc2c(c1)CN(C)C(=O)N2

Response line:
["9 µM", "≤ 0.3 µM", "≤ 0.3 µM", "3 µM", "3 µM", "3 µM"]

====

Test system: HepG2-TUBA1B-RELA
experimental protocol: lowest phenotypically active concentration; higher = less potent
assay setup: treatment time: 24 h
endpoint: lowest phenotypically active concentration

Worked set:
| compound | reported value |
| --- | --- |
| Cc1ccc([N+](=O)[O-])cc1S(=O)(=O)N(C)/N=C/c1cnc2ccc(Br)cn12 | ≤ 0.3 µM |
| FC(F)(F)c1ccc(/C=C/c2nc(COc3ccc(CCCCn4ccnn4)cc3)co2)cc1 | ≤ 0.3 µM |

Now examine the next entry.
Prompt line: For the compound CC(=C/[C@@H](C)C(=O)c1ccc(N(C)C)cc1)/C=C/C(=O)NO [Trichostatin A] , report lowest phenotypically active concentration.
Response line: ≤ 0.3 µM

====

Test system: HepG2-ACTB-RAB5A
experimental protocol: lowest phenotypically active concentration; higher = less potent
assay setup: treatment time: 24 h
Structures can show the parent of a compound that is named as a salt.
endpoint: lowest phenotypically active concentration

Consider the worked cases shown below.
| compound | reported value |
| --- | --- |
| CCOC(=O)Nc1cc(-c2ccc(C)c(NS(C)(=O)=O)c2)nn2c(C)nnc12 | ≤ 0.3 µM |
| Cc1c(CN2CCN(C(=O)[C@H](C)O)CC2)sc2c(N3CCOCC3)nc(-c3cnc(N)nc3)nc12 | ≤ 0.3 µM |
| Nc1ccc(-c2ccc3ncc4ccc(=O)n(-c5cccc(C(F)(F)F)c5)c4c3c2)cn1 | ≤ 0.3 µM |
| O=C1c2c(O)ccc(O)c2C(=O)c2c(NCCNCCO)ccc(NCCNCCO)c21 | ≤ 0.3 µM |
| CN1C/C(=C/c2ccc(B(O)O)cc2)C(=O)/C(=C/c2ccc(B(O)O)cc2)C1 | ≤ 0.3 µM |

Value sought for every listed compound: lowest phenotypically active concentration.
1. Oc1cccc(-c2nc(N3CCOCC3)c3oc4ncccc4c3n2)c1 [PI 103 hydrochloride]
2. COc1cc2ncn(-c3cc(OCc4ccccc4C(F)(F)F)c(C(N)=O)s3)c2cc1OC

Response line:
["≤ 0.3 µM", "≤ 0.3 µM"]

====

For each of the compounds below, state its phenotypically active.
System: WPMY1-CANX-COX4
experimental protocol: phenotypically active (imaging signature differs from DMSO and reproducible) at any of 0.3-9 uM (binary (1 = active, 0 = inactive)); higher = active
assay setup: treatment time: 24 h
Where a name gives a salt, the structure may show the parent alone.
Numbers only.

| compound | phenotypically active |
| --- | --- |
| CC(C)(C#N)c1cc(Cn2cncn2)cc(C(C)(C)C#N)c1 | 0 |
| Cc1ccc([N+](=O)[O-])cc1S(=O)(=O)N(C)C | 0 |
| CC(C)NCC(O)c1ccc(O)c(O)c1 (configuration not stated) [Isoproterenol hydrochloride] | 0 |
| CCc1cccc2c3c([nH]c12)C(CC)(CC(=O)O)OCC3 (configuration not stated) | 0 |
| C[C@@H]1CN(Cc2ccc(F)cc2)[C@@H](C)CN1C(=O)c1cc2c(C(=O)C(=O)N(C)C)cn(C)c2cc1Cl [SCIO 469 hydrochloride] | 1 |
| O=c1cc(-c2ccccc2)oc2c(O)c(O)ccc12 [7,8-Dihydroxyflavone] | 1 |

Next item in the queue.
Prompt line: Give reported phenotypically active value for COc1cc2c(cc1-c1c(C)noc1C)ncc1[nH]c(=O)n([C@H](C)c3ccccn3)c12 [I-BET 151 dihydrochloride]
Response line: 1

====

Give phenotypically active for every item shown.
Test system: A549-GM130-SQSTM1
experimental protocol: phenotypically active (imaging signature differs from DMSO and reproducible) at any of 0.3-9 uM (binary (1 = active, 0 = inactive)); higher = active
assay setup: treatment time: 24 h
Structures can show the parent of a compound that is named as a salt.
One number for each entry.

Some compounds with recorded phenotypically active:
| compound | phenotypically active |
| --- | --- |
| C=C1C(=O)O[C@@H]2[C@H]3O[C@]3(C)CCC=C(C)CC[C@@H]12 [Parthenolide] | 1 |
| CN(C)CC(=O)N1CCC[C@@H](n2nc(-c3ccc(Oc4ccccc4)cc3)c3c(N)ncnc32)C1 | 1 |
| N#C/C(=C/c1ccc(-c2cc(Cl)ccc2Cl)o1)C(=O)Nc1cccc2ncccc12 | 1 |

The following compounds each have a reported value; give each one's phenotypically active.
1. CON(C)C(=O)N1N=C(c2cc(F)ccc2F)S[C@@]1(CCCN)c1ccccc1 [ARRY 520 trifluoroacetate]
2. CN1c2ccc([N+](=O)[O-])cc2N=C(c2ccc(C(=O)O)cc2)c2cc3c(cc21)C(C)(C)CCC3(C)C
3. CC(C)C(=O)SCCCCCCC(=O)Nc1nc(-c2ccccc2)cs1
4. Cc1cc(C)cc(C(=O)NOCCCCCC(=O)NO)c1
5. C[C@]12CC[C@@H]3c4ccc(OS(=O)(=O)O)cc4CC[C@H]3[C@@H]1CCC2=O

Response line:
1. 1
2. 1
3. 0
4. 1
5. 0

For every item below, please supply its phenotypically active.
1. NC(=O)[C@@H](CCC(F)(F)F)N(Cc1ccc(-c2ncon2)cc1F)S(=O)(=O)c1ccc(Cl)cc1
2. Nc1ncn([C@@H]2O[C@H](CO)[C@@H](O)[C@H]2O)c(=O)n1
3. CS(=O)(=O)c1cccc(CNc2nc(Nc3ccc4c(c3)CCC(=O)N4)ncc2C(F)(F)F)c1
4. CCCCCCCCCCCCCCCC[n+]1ccn(Cc2ccccc2)c1C
5. COC(=O)c1c(C)cc(OC(=O)c2c(C)cc(O)c(C=O)c2O)c(C)c1O

Response line:
[0, 1, 1, 1, 0]

Prompt line: Input C[N+]1(C)[C@@H]2C[C@@H](OC(=O)C(O)(c3cccs3)c3cccs3)C[C@H]1[C@@H]1O[C@@H]12 [Tiotropium bromide] , output reported phenotypically active.
Response line: 0

====

Test system: A549-TUBA1B-RELA
experimental protocol: phenotypically active (imaging signature differs from DMSO and reproducible) at any of 0.3-9 uM (binary (1 = active, 0 = inactive)); higher = active
assay setup: treatment time: 24 h
Counter-ions that a name gives are not always drawn.
Write down the outcome that applies. Available outcomes: YES for active, NO for inactive

Here are 4 compounds together with their reported answers.
| compound | assigned class |
| --- | --- |
| CN(N=O)C(=O)N[C@@H](C=O)[C@@H](O)[C@H](O)[C@H](O)CO.CN(N=O)C(=O)N[C@H]1C(O)O[C@H](CO)[C@@H](O)[C@@H]1O | NO |
| O=C1Cc2c([nH]c3ccc(Br)cc23)-c2ccccc2N1 | YES |
| COC(=O)[C@H]1[C@H]2C[C@H]3c4[nH]c5ccccc5c4CCN3C[C@@H]2CC[C@@H]1O [Corynanthine hydrochloride] | NO |
| O=C1Cc2cc(CCN3CCN(c4nsc5ccccc45)CC3)c(Cl)cc2N1 | YES |

Prompt line: Kindly provide the recorded test outcome for the following compound: COc1cc(C(=O)NC2CCN(C)CC2)c(F)cc1Nc1ncc2c(n1)N(C1CCCC1)CC(F)(F)C(=O)N2C [TAK 960 hydrochloride]
Response line: YES

Prompt line: Any idea what this test logged for CCOc1cc(CC(=O)N[C@@H](CC(C)C)c2ccccc2N2CCCCC2)ccc1C(=O)O [repaglinide] ?
Response line: NO

Prompt line: Record request — test call for COC(=O)C1=CO[C@@H](O[C@@H]2O[C@H](CO)[C@@H](O)[C@H](O)[C@H]2O)[C@H]2[C@@H]1C(=O)C[C@@H]2C
Response line: NO

Prompt line: Tell me the assay call for C(=C/c1ccccc1)/CN1CCN(C(c2ccccc2)c2ccccc2)CC1 please.
Response line: NO

Prompt line: Status in this test for Clc1ccc(C2(c3ccc(-c4cn[nH]c4)cc3)CCNCC2)cc1 ?
Response line: YES

Prompt line: For this compound, state the assay outcome: O=C(O)COc1ccc(Br)cc1/C=C1\SC(=S)N(Cc2cccnc2)C1=O
Response line: NO

Prompt line: Please let me know the test result on file for CC[N+](CC)(CC)CCC(O)(c1ccccc1)C1CCCCC1 (configuration not stated) .
Response line: NO

Prompt line: Hi, sorry to bother you, what did the test record for CCN1C(C)(C)CC(Oc2ccc(C(=O)Nc3ccc(NC(=O)Nc4cc(C(C)(C)C)on4)cc3)nc2)CC1(C)C ?
Response line: NO
